- stated conditions: in ethyl acetate, 290.65 K
property: solubility (mole fraction)

molecule	recorded measurement
CC(C)C(=O)OCC(=O)[C@@]12O[C@H](C3CCCCC3)O[C@@H]1C[C@H]1[C@@H]3CCC4=CC(=O)C=C[C@]4(C)[C@H]3[C@@H](O)C[C@@]12C	0.076

====

- stated conditions: in n-propanol, 313.15 K
property: solubility (mole fraction)

molecule	property	recorded measurement
CC(C)C(=O)OCC(=O)[C@@]12O[C@H](C3CCCCC3)O[C@@H]1C[C@H]1[C@@H]3CCC4=CC(=O)C=C[C@]4(C)[C@H]3[C@@H](O)C[C@@]12C	solubility (mole fraction)	0.0925
